Target System: human ether-à-go-go-related gene (hERG) potassium channel (human, UniProt Q12809);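 also: peak tail current of the secondary pulse compared with the same well before compound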
Sequence (Q12809 whole entry, looked up): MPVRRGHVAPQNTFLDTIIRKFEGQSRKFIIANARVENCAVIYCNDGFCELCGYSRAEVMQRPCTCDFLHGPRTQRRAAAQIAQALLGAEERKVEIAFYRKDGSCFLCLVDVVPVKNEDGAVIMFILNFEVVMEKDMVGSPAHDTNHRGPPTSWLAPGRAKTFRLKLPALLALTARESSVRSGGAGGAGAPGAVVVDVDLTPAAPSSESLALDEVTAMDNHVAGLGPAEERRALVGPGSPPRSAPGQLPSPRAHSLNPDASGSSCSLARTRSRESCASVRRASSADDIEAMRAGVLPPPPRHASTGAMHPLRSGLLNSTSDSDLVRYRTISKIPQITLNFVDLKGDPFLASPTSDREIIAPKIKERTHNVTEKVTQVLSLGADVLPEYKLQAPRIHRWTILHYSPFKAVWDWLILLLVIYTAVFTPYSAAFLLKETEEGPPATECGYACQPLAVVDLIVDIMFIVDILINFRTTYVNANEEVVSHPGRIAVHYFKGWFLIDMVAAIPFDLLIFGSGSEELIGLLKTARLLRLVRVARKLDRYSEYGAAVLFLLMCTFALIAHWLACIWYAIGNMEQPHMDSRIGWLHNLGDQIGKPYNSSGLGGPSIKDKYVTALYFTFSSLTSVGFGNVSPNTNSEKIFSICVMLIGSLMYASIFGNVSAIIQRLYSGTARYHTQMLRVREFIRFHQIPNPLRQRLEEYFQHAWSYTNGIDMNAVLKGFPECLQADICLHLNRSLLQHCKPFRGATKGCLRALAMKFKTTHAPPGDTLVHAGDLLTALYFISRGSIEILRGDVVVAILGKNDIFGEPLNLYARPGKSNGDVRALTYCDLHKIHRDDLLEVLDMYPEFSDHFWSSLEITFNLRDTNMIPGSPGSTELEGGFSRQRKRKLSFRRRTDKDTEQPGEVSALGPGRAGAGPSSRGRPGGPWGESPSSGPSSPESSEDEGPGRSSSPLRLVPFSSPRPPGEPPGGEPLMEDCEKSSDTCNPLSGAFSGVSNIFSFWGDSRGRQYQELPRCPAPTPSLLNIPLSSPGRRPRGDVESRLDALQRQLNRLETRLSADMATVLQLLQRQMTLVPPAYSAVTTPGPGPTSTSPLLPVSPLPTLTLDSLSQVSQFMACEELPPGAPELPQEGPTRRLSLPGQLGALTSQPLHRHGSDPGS
Assay Name: primary screen, population patch clamp on CHO cells stably expressing hERG; higher = less effect of the substance
In all, about 310,000 compounds went through this assay and about 14,000 (4.5%) showed an effect of 50% or more. Effects have a minus sign here. The sample holds strong results, similar compounds and a random draw of the others, so the mix is not that of the screen.
Measured Attribute: hERG current change (%, negative = inhibition) at 10uM (%)
# number only, unit % dropped from output

input: Return hERG current change (%, negative = inhibition) at 10uM (reported value) for this compound: "Cc1ccc(S(=O)(=O)N(Cc2cccc(Cl)c2)C(=O)N2CCN(C)CC2)cc1"
output: 9.85

input: Return hERG current change (%, negative = inhibition) at 10uM (reported value) for this compound: COc1ccc(C2c3ccc(O)cc3Oc3ncn(Cc4ccccc4)c(=N)c32)cc1OC (stereo not shown)
output: -51.7

input: Return hERG current change (%, negative = inhibition) at 10uM (reported value) for this compound: COc1ccc(NC(=O)c2cccc3c2C(=O)N(CC2CCCO2)C3)cc1OC (stereo not shown)
output: -17.9

input: Return hERG current change (%, negative = inhibition) at 10uM (reported value) for this compound: CCN1CCCC1CN(Cc1cc2cc(C)cc(C)c2[nH]c1=O)C(=O)Nc1ccccc1OC (stereo not shown)
output: -61.4

input: Return hERG current change (%, negative = inhibition) at 10uM (reported value) for this compound: "COc1ccccc1NC(=S)N(Cc1ccco1)Cc1cc2ccc(C)c(C)c2[nH]c1=O"
output: -8.05

input: Return hERG current change (%, negative = inhibition) at 10uM (reported value) for this compound: COc1ccc(C2c3ccc(O)cc3Oc3ncn(CC(C)C)c(=N)c32)cc1 (stereo not shown)
output: -69.8

input: Return hERG current change (%, negative = inhibition) at 10uM (reported value) for this compound: COc1ccc(C2c3ccc(O)cc3Oc3ncn(CCN4CCOCC4)c(=N)c32)cc1OC (stereo not shown)
output: -11.8

input: Return hERG current change (%, negative = inhibition) at 10uM (reported value) for this compound: CCC(C)[C@H](NC(=O)[C@H](Cc1ccccc1)n1c(=O)[nH]c2ccccc2c1=O)C(=O)NCC1CCC(C(=O)O)CC1 (stereo partly shown)
output: 20.4

Continuing:
input: Return hERG current change (%, negative = inhibition) at 10uM (reported value) for this compound: "Cc1cc(C)cc(OCC(=O)Nc2ccncc2)c1"
output: -18.9

input: Return hERG current change (%, negative = inhibition) at 10uM (reported value) for this compound: "Cc1ccc(C)c(N2CCN(C(=O)CCC(=O)N3CCOc4ccc(Cl)cc43)CC2)c1"
output: -18.9

input: Return hERG current change (%, negative = inhibition) at 10uM (reported value) for this compound: COc1ccc(C2c3ccc(O)cc3Oc3ncn(CCN4CCOCC4)c(=N)c32)cc1 (stereo not shown)
output: -28.1

input: Return hERG current change (%, negative = inhibition) at 10uM (reported value) for this compound: "COc1ccccc1NC(=O)N(Cc1ccco1)Cc1cc2cc(C)cc(C)c2[nH]c1=O"
output: -2.39

input: Return hERG current change (%, negative = inhibition) at 10uM (reported value) for this compound: Cc1ccc2c(c1)N(C(=O)CCC(=O)N1CCN(c3ccccn3)CC1)CC(C)O2 (stereo not shown)
output: -46.1

input: Return hERG current change (%, negative = inhibition) at 10uM (reported value) for this compound: "Cc1ccc(-c2n[nH]c(=S)n2/N=C/c2ccc(C(=O)O)cc2)cc1"
output: 3.02

input: Return hERG current change (%, negative = inhibition) at 10uM (reported value) for this compound: "CN(CCc1ccccn1)C(=S)Nc1ccc(Cl)c(Cl)c1"
output: -3.59

input: Return hERG current change (%, negative = inhibition) at 10uM (reported value) for this compound: "O=C(CCC(=O)N1CCOc2ccc(Cl)cc21)N1CCN(c2ccccn2)CC1"
output: -57.5
